IC50 values for UniProt:O75116 compiled from several publications are listed below.

molecule	IC50
CN(C)Cc1cccc(CNC(=O)c2cccc([C@@H](CO)NC(=O)c3ccc(-c4cn[nH]c4)cc3)c2)c1	0.65 nM
O=c1n(Cc2ccc(F)cc2)ccn1-c1ccc(-c2cn[nH]c2)cc1	20.1 to 200 nM
O=C(NC1CC2(C1)CC(c1n[nH]c(=O)c3ccccc13)C2)c1cnn2cc(OC(CF)CF)ccc12 (centres unmarked)	0.2 to 2 nM
Cn1cc(-c2ccc3nc(NC(=O)Cc4ccc(Oc5ncccc5C(N)=O)c(F)c4)n(CC4CC4)c3c2)cn1	5 nM
CC1(C)CN(c2ccc(-c3cn[nH]c3)cc2)C(=O)N1Cc1cccc(OCC2CC2)c1	2.1 to 20 nM

Provide each entry's IC50 from the list below.
1. [H][C@]1(Oc2nc(OC)ccc2C(N)=O)C[C@]2(C[C@@H](N3C(=O)N[C@@H](CC(C)C(F)(F)F)C3=O)C2)C1 (some centres unmarked)
2. COc1cccc(Cn2nc(C)n(-c3ccc(-c4cn[nH]c4)c(OC)c3)c2=O)c1

OUT:
1: 5 nM; 2: 50 to 250 nM

Provide each entry's IC50 from the list below.
1. [H][C@]1(c2n[nH]c(=O)c3ccccc32)C[C@]2(C[C@@H](NC(=O)c3cnc4c(OCc5ccccc5)cccn34)C2)C1 (some centres unmarked)
2. CC(C)(O)CCc1ccc2c(C(=O)N[C@H]3CC4(C3)C[C@H](c3n[nH]c(=O)c5ccccc53)C4)cnn2c1 (some centres unmarked)
3. Cc1nc(N2CCC(F)C2)sc1C(=O)NC1CC2(C1)CC(c1n[nH]c(=O)c3ccccc13)C2 (centres unmarked)
4. N#CC1CCN(C(=O)c2cc3ccc(-c4nccc(Nc5ccc(-c6cn[nH]c6)cc5)n4)cc3[nH]2)C1 (centres unmarked)

OUT:
1. 0.2 to 2 nM
2. 0.2 to 2 nM
3. 5.1 to 15 nM
4. 13 nM
